- System: NCI-H23
- protocol.details: NCI tumour cell line growth inhibition, 48 h
Calls of active or inactive are those of the source. Rule as the data show it: active = GI50 up to about 1.1 µM and inactive = higher.
property: GI50

Entry C#CC1NC(=O)C1N(CC)CC (centres undefined) , GI50 reported as > 100 µM (inactive)

Entry `CCc1nc(N)nc(N)c1-c1ccc(N2CCNCC2)c([N+](=O)[O-])c1` , GI50 reported as 7.85 µM (inactive)

Entry `COc1ccc(OC)c(CCc2cc(OC)c(OC)cc2C)c1` , GI50 reported as 32.1 µM (inactive)

Entry COC(=O)C(C(=O)C(=O)Nc1ccc(N)cc1[N+](=O)[O-])c1nc2ccc(Cl)cc2nc1O (centres undefined) , GI50 reported as > 100 µM (inactive)

Entry `COC(=O)[C@@H]1Cc2cc(O)c(O)cc2C2(CCN(C)CC2)O1` , GI50 reported as > 10 µM (inactive)

Entry `CC(=O)O[C@H]1CC[C@@]2(C)C(=CC[C@@H]3[C@@H]2CC[C@]2(C)c4c(C)nn(-c5ccccc5)c4C[C@@H]32)C1` , GI50 reported as 13.2 µM (inactive)

Entry COC(=O)C(=O)C(/C(=N/N)C(=O)Nc1ccccc1C(N)=O)c1nc2ccc([N+](=O)[O-])cc2nc1O (centres undefined) , GI50 reported as > 100 µM (inactive)

Entry CN(C)c1ccc(/C=C(\NC(=O)c2ccccc2)C2NC(Cc3c[nH]c4ccccc34)C(=O)O2)cc1 (centres undefined) , GI50 reported as 14 µM (inactive)

Entry Cc1c(Cl)ccc2c1NC(=O)C2(O)CC(=O)c1ccc(Cl)cc1Cl (centres undefined) , GI50 reported as > 47.1 µM (inactive)

Reference for the values: ChEMBL document CHEMBL1201862
